assay target: Human Cav2.2 channels (Homo sapiens, UniProt Q00975)
Construct: expressed in transfected cells
Sequence (Q00975 whole entry): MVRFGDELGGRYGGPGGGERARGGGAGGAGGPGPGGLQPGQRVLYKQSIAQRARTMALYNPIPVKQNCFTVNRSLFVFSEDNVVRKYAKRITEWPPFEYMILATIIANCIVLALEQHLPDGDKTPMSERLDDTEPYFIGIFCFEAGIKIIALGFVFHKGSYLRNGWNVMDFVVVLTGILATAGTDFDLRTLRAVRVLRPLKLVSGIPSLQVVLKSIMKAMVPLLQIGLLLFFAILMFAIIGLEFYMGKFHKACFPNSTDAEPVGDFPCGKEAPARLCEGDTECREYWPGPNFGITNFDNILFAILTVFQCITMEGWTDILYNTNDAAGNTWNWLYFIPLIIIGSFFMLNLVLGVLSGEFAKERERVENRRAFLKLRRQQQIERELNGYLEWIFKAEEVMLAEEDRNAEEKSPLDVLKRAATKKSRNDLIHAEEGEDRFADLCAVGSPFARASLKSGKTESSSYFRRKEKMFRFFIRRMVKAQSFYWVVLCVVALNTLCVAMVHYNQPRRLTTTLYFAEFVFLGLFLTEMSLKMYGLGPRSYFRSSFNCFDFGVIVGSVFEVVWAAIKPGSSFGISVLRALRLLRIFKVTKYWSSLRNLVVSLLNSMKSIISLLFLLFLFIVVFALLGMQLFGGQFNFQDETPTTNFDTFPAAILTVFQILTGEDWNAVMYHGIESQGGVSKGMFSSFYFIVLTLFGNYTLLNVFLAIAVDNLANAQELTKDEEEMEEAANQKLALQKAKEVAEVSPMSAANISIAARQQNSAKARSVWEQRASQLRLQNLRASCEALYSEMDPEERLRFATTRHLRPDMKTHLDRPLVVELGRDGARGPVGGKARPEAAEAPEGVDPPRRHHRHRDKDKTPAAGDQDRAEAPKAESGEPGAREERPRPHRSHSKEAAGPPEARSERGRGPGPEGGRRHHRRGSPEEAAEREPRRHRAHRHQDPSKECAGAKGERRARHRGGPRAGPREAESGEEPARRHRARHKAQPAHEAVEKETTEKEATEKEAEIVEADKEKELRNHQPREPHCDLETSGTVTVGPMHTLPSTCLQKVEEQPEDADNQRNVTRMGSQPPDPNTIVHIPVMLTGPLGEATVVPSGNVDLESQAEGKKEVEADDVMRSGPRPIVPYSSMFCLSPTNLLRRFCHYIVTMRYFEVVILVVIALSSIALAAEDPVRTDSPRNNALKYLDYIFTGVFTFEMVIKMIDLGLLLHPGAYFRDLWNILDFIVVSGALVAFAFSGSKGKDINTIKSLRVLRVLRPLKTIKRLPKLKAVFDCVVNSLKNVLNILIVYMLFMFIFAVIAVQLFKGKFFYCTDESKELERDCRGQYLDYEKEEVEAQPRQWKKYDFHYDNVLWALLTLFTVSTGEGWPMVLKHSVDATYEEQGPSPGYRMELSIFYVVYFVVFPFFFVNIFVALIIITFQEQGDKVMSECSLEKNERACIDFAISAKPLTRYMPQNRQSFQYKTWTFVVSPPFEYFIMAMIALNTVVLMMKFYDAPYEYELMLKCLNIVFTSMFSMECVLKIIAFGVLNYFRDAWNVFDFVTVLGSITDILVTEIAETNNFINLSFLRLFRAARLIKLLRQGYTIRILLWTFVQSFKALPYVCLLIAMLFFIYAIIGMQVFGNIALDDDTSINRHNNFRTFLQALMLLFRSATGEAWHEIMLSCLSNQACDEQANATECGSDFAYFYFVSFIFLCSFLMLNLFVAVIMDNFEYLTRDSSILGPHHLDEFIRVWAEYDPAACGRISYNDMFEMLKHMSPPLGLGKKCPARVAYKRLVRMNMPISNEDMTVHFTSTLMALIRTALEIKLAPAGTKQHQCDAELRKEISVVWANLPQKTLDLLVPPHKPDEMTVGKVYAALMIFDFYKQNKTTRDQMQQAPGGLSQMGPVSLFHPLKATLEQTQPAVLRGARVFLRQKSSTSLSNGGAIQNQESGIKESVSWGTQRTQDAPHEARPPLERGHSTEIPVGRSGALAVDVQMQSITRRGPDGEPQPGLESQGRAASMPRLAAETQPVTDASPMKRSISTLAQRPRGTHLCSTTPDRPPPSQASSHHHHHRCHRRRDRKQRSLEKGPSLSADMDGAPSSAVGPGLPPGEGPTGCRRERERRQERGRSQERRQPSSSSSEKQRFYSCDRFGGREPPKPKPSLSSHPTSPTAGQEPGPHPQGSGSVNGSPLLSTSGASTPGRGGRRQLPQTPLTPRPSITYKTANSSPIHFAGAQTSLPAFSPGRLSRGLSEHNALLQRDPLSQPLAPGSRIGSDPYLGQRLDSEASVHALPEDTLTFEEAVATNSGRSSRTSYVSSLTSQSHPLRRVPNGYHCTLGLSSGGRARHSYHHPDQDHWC
Sequence (P54289 25-1103 partner): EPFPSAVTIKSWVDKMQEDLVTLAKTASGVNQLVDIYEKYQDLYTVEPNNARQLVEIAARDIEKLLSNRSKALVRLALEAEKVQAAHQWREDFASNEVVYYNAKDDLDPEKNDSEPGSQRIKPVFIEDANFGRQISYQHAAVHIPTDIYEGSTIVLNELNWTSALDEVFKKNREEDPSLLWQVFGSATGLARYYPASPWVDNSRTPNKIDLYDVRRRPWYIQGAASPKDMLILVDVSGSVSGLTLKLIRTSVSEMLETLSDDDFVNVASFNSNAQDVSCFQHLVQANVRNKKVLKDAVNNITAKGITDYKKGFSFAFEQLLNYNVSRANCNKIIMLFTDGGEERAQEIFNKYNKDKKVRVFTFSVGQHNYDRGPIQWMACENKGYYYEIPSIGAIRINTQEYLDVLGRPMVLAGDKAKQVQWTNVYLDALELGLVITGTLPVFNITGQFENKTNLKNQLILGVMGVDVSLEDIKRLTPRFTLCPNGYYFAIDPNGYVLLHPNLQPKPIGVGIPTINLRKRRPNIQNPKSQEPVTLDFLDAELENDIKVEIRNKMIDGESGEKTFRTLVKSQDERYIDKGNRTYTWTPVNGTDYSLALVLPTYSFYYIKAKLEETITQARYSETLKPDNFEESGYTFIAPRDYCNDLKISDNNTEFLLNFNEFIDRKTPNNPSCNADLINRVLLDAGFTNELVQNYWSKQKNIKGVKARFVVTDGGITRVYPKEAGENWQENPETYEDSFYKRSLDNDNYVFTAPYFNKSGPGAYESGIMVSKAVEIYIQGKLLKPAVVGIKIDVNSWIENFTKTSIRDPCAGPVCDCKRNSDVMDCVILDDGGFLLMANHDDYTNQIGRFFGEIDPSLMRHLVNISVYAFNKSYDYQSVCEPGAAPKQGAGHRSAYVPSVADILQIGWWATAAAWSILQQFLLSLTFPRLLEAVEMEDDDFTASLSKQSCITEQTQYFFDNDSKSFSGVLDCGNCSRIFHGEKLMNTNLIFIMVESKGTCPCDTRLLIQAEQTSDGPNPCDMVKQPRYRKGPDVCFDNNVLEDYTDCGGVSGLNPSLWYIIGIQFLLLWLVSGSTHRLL
Sequence (P54284 whole entry partner): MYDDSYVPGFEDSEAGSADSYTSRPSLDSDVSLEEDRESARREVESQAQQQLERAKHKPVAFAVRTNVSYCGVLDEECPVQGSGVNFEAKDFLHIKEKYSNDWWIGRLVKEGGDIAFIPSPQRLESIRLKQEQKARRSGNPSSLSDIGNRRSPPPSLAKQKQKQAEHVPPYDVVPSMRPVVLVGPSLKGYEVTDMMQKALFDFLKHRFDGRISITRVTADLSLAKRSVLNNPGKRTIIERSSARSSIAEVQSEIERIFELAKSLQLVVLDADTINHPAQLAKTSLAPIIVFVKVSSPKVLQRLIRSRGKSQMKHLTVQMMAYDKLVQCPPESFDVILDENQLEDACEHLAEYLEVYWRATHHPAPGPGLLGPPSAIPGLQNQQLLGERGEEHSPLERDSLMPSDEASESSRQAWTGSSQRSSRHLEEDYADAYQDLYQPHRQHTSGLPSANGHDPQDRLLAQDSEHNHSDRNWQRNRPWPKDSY
method notes: Fluorescent assay for Cav2.2 channels using potassium depolarization to initiate channel opening
Assay type: cell-based
protocol conditions: 10 μM compound; read-out: Cav 2.2 Activity % Inh at 10 μM
inhibition at 10 µM below 90% gives rule not met; inhibition at 10 µM at or above it gives rule met.

Illustrative cases are given below, each with its answer.
[[record]]
smiles = "Cc1cnc(CNC(=O)C2(NC(=O)c3cc(C(C)(C)C)c(O)c(C(C)(C)C)c3)CCCCC2)cn1"
assay_target = "Human Cav2.2 channels (Homo sapiens, UniProt Q00975)"
class = "rule met"

[[record]]
smiles = "CN(C)c1cccc(CNC(=O)C2(NC(=O)c3cc(C(C)(C)C)nc(C(C)(C)C)c3)CCOCC2)c1"
assay_target = "Human Cav2.2 channels (Homo sapiens, UniProt Q00975)"
class = "rule not met"


Lookup: Determine whether measured inhibition at 10 µM meets or exceeds 90% for CC(C)(C)c1cc(C(=O)NC2(C(=O)NCc3ccc(Cl)cc3)CCCCC2)cc(C(C)(C)C)c1
Found: rule met

Lookup: Is inhibition at 10 µM at least 90%? Consider COc1ccc(CNC(=O)C2(NC(=O)c3cc(C(C)(C)C)nc(C(C)(C)C)c3)CCOCC2)cc1
Found: rule not met

# credit: patent US20090270394A1
